biological target: Nucleotide-binding oligomerization domain-containing protein 1, Homo sapiens (UniProt Q9Y239); assay: inhibition of NOD1-driven NF-kB reporter – cell-based, luminescence, uHTS, primary screen (AID 1578)
Hit rate of the full screen: of about 290,000 compounds, about 3,000 (1%) were called active. This excerpt belongs to a sample that is enriched for actives.

| Molecule | outcome |
| --- | --- |
| CC(=O)c1c(C)[nH]c(C(=O)OCC(=O)Nc2sc3c(c2C#N)CCCC3)c1C | active |
| CCc1cc(C(=O)NC2CCCc3c2cnn3-c2cccc(C)c2C)n(C)n1 (stereo unspecified) | active |
| CC(C)c1ccc(-c2nnn(CCC(=O)O)n2)cc1 | active |
| Cc1ccc(CS(=O)(=O)c2ccc(C(=O)N3CCN(c4ccccn4)CC3)cc2[N+](=O)[O-])cc1 | active |
| O=C(OCn1ncc(Br)c(Br)c1=O)c1c(F)cccc1F | active |
| CC(C)CC(=O)/C=C/n1c(=S)oc2ccccc21 | active |
| CC(=O)/C=C/n1c(=S)oc2ccccc21 | active |
| CC(=O)Cn1ncc(Br)c(Br)c1=O | active |
| COc1ccc(Cc2[nH]n3c(=O)c(Cl)c(C)nc3c2-c2ccccc2)cc1 | active |
| Cc1ccc(S(=O)(=O)Nc2cccc3cccnc23)cc1 | active |
| Cc1ccc2cccc(NS(=O)(=O)c3ccccc3)c2n1 | active |

====

Target: Nucleotide-binding oligomerization domain-containing protein 1, Homo sapiens (UniProt Q9Y239)
Sequence (whole entry): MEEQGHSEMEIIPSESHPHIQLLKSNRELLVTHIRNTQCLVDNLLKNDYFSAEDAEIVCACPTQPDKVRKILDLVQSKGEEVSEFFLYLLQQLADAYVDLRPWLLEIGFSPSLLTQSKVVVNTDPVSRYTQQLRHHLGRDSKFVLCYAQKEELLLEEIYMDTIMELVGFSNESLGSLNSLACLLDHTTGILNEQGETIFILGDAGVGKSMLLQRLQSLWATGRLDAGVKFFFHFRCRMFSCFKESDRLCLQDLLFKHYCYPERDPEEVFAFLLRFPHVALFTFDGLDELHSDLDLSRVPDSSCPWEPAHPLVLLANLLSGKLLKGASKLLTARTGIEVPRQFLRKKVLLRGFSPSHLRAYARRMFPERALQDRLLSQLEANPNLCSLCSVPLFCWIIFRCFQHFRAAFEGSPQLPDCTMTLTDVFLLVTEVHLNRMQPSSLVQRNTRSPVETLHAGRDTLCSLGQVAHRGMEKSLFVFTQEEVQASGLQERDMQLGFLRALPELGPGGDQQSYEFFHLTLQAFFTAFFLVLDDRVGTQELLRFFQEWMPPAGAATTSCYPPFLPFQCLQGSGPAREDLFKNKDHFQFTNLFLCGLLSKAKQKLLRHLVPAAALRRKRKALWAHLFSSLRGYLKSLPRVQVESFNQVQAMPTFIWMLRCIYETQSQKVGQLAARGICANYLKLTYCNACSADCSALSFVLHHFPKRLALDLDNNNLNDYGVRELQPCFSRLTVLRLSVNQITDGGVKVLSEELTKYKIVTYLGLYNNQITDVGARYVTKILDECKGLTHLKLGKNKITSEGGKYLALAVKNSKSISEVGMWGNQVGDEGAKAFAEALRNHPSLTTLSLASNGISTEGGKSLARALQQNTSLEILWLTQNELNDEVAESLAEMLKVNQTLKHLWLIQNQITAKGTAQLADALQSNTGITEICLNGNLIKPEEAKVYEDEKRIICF
Assay: inhibition of NOD1-driven NF-kB reporter – cell-based, luminescence, uHTS, primary screen (AID 1578)
The whole screen tested about 290,000 compounds, of which about 3,000 (1%) were called active. Many of the other results were omitted from the sample, so actives are more common in it than they were.

| Compound | outcome |
| --- | --- |
| COc1cc(Nc2nc3ccccc3nc2NS(=O)(=O)c2ccc([N+](=O)[O-])cc2)cc(OC)c1OC | active |
| CCOC(=O)c1csc(Nc2nc3ccc(F)cc3s2)n1 | active |
| Cc1cc(C(=O)CN2C(=O)c3ccccc3S2(=O)=O)c(C)n1CC1CCCO1 (stereo not given) | active |
| O=[N+]([O-])c1cc(S(=O)(=O)Nc2cccc(C(F)(F)F)c2)ccc1-n1nnc2ccccc21 | active |
| O=C(O)c1c(NC(=O)c2cccc3ccccc23)sc2c1CCC2 | active |

====

biological target: Nucleotide-binding oligomerization domain-containing protein 1, Homo sapiens (UniProt Q9Y239); assay: inhibition of NOD1-driven NF-kB reporter – cell-based, luminescence, uHTS, primary screen (AID 1578)
The whole screen tested about 290,000 compounds, of which about 3,000 (1%) were called active. The entries come from a sample that favours actives as a whole.

| Compound | outcome |
| --- | --- |
| Clc1ccc(CSc2nnc(-c3ccncc3)o2)cc1 | active |
| Cc1c(CCC(=O)O)c(=O)oc2cc(OCc3ccccc3Br)ccc12 | active |
| O=C(Nc1cccc(S(=O)(=O)N2CCCCC2)c1)c1ccccc1NS(=O)(=O)c1ccc(F)cc1 | active |
| CCOC(=O)C1=C(C)N=c2s/c(=C/c3cccc([N+](=O)[O-])c3O)c(=O)n2C1c1ccccc1 (stereo not given) | active |
| Cc1ccc(NC(=O)c2ccccc2NS(=O)(=O)c2ccc(F)cc2)cc1S(=O)(=O)N1CCCCC1 | active |
| COc1cccc(-c2coc3c(C)c4oc(=O)c(CCC(=O)O)c(C)c4cc23)c1 | active |
| Fc1ccc(CSc2nnc(-c3ccncc3)o2)cc1 | active |
| Nc1ncc(Br)cc1S(=O)(=O)Nc1cc(C(F)(F)F)cc(C(F)(F)F)c1 | active |
| Cc1ccc(N=c2oc3cc(O)ccc3cc2C(N)=O)cc1 | active |
| Cc1ccc(Cl)cc1N1CCN(C(=O)CSc2nnc3n2C(C)(C)Cc2ccccc2-3)CC1 | active |

====

molecular target: Nucleotide-binding oligomerization domain-containing protein 1, Homo sapiens (UniProt Q9Y239); assay: inhibition of NOD1-driven NF-kB reporter – cell-based, luminescence, uHTS, primary screen (AID 1578)
Screen size: about 290,000 compounds; about 3,000 (1%) were called active. Many of the other results were omitted from the sample, so actives are more common in it than they were.
Readout Kind: outcome

| Compound | Reported Value |
| --- | --- |
| COc1ccc(CCNC(=O)C(C)n2nc(C)c3c(C)n(-c4ccc(C)cc4)nc3c2=O)c(OC)c1 (stereo not given) | active |
| O=C(Cc1ccc(Cl)cc1)c1c[nH]c(C(=O)NCc2cccnc2)c1 | active |
| CCOc1cccc(-c2c(C(=O)N/N=C(\C)c3ccccn3)nnn2-c2nonc2N)c1 | active |
| COc1ccc(OC)c(CCNC(=O)C(C)n2nc(C)c3c(C)n(-c4ccc(C)cc4)nc3c2=O)c1 (stereo not given) | active |
| Cc1cnc(NC(=O)C2CC(=O)N(c3cccc(Cl)c3)C2)s1 (stereo not given) | active |

====

target: Nucleotide-binding oligomerization domain-containing protein 1, Homo sapiens (UniProt Q9Y239); experiment: inhibition of NOD1-driven NF-kB reporter – cell-based, luminescence, uHTS, primary screen (AID 1578)
In all, about 290,000 compounds went through this assay and about 3,000 (1%) were called active. Only a selection was taken, and actives are over-represented in it overall.

| Compound | outcome |
| --- | --- |
| Cc1ccc(C)c(NC(=O)c2ccccc2NS(=O)(=O)c2cc([N+](=O)[O-])ccc2C)c1 | active |
| Cc1cc(C)c(C)c(S(=O)(=O)N2CCN(c3ncnc4sc(C)c(C)c34)CC2)c1C | active |
| c1ccc2c(c1)ncn2-c1ccc(-c2ccnc(-c3ccncc3)n2)cc1 | active |
| Nc1nccc(-c2ccc(-n3cnc4ccccc43)cc2)n1 | active |
| Cc1ccc(Cc2cnc(N3C(=N)SC(C)C3=O)s2)cc1 (stereo not given) | active |
| Cc1cccc(Cc2cnc(N3C(=N)SC(C)C3=O)s2)c1 (stereo not given) | active |
| CCc1ccc(-c2nc(CSCC(=O)N3CCN(c4ccccn4)CC3)c(C)o2)cc1 | active |
| O=C(Nc1nnc(-c2cccs2)o1)c1cccc(C(F)(F)F)c1 | active |
| Cc1ccc(OCCN2CCN(c3ncnc4sc(C)c(C)c34)CC2)cc1 | active |
| Cc1ccc(NC(=O)c2ccccc2NS(=O)(=O)c2ccc(Cl)s2)cc1 | active |

====

biological target: Nucleotide-binding oligomerization domain-containing protein 1, Homo sapiens (UniProt Q9Y239); experiment: inhibition of NOD1-driven NF-kB reporter – cell-based, luminescence, uHTS, primary screen (AID 1578)
Hit rate of the full screen: of about 290,000 compounds, about 3,000 (1%) were called active. The entries come from a sample that favours actives as a whole.
Readout Kind: outcome

| Compound | Reported Value |
| --- | --- |
| C/C(=N\NC(=O)C1COc2ccccc2O1)c1ccccn1 (stereo not drawn) | active |
| O=C(Nc1ccccc1C(=O)Nc1nnc(C(F)(F)F)s1)c1ccccc1Cl | active |
| COc1ccc(-c2cc(C)no2)cc1S(=O)(=O)N1CCN(c2ccccc2F)CC1 | active |
| COc1cccc2sc(Nc3nc(-c4ccccn4)cs3)nc12 | active |
| COc1ccc(NC(=O)/C(Cl)=C(/Cl)S(=O)Cc2ccccc2Cl)cn1 (stereo not drawn) | active |
| COc1ccc(NS(=O)(=O)c2cccc(NC(=O)c3ccc(S(=O)(=O)N4CCCCCC4)cc3)c2)cc1 | active |
| C/C(=N\NC(=O)c1cccc2ccccc12)c1ccccn1 | active |
| Cc1cc(-c2ccc(C)c(S(=O)(=O)N3CCN(c4ccc(F)cc4)CC3)c2)on1 | active |
| COc1ccccc1CN(Cc1nc2ccccc2c(=O)[nH]1)S(=O)(=O)c1ccc2ccccc2c1 | active |
| O=C(Nc1nnc(-c2ccc3c(c2)OCCO3)o1)c1ccc(Cc2ccccc2)cc1 | active |
| O=C(NNC(=O)c1ccccc1OCc1ccccc1)c1ccccc1O | active |
| c1ccc(N2CCN(c3ncnc4sc5c(c34)CCC5)CC2)cc1 | active |
| O=C(NC1CCCC1)c1sc(=S)n2c1[nH]c(=O)c1ccccc12 | active |
| CC(C)(C)OC(=O)NCCc1nnc(S(=O)(=O)Cc2ccc(Cl)cc2Cl)o1 | active |
| CCCn1c(SCC(=O)Nc2nc3c(s2)CCCC3)nc2c1c(=O)n(C)c(=O)n2C | active |
| O=C(Nc1ccc(Cl)c(Cl)c1)Nc1ccc(Br)cc1F | active |
| Cc1c(C)n(Cc2ccccc2)c2ncnc(Cl)c12 | active |
| CC(C)n1c(CN(C)Cc2ccccc2)nc2c1c(=O)n(C)c(=O)n2C | active |
| O=[N+]([O-])c1nn(-c2ccc3c(c2)OCCO3)n(O)c1=Nc1ccccc1 | active |
| CCCCn1c(SCC(=O)Nc2nnc(CC)s2)nc2c1c(=O)n(C)c(=O)n2C | active |
| Cc1ccc(S(=O)(=O)c2ncccc2[N+](=O)[O-])cc1 | active |
| COc1cc(OC)cc(-c2nnc(NC(=O)c3ccc4c(c3)OCCO4)o2)c1 | active |
| Cc1ccc(NC(=O)CSc2nn(-c3ccccc3)c(=S)s2)cc1S(=O)(=O)N(C)C | active |
| CC(=O)c1cccc(NS(=O)(=O)c2ccc(-c3cnc(C4CC4)o3)cc2)c1 | active |
| CCCCCCCCC[n+]1cccc2c3ccccc3ccc21.[Br-] | active |
| N#CC1=C(N)N2C(=C(C#N)C1c1cccc(Br)c1)Nc1ccccc12 (stereo not drawn) | active |
| CCC(=O)Nc1cccc(C(=O)/C=C/c2cc(Br)ccc2OC)c1 | active |
| Cc1ccc(C(=O)NC(=S)N(C)C2CCCCC2)cc1Br | active |
| COc1ccccc1-c1nnc(SCC(=O)Nc2nc(-c3ccccc3)cs2)n1C | active |
| C/C(=N\NC(=O)c1ccccc1Cl)c1ccccn1 | active |
| Cc1ccccc1-c1nc(CSc2nc3c(c(=O)[nH]2)CCC3)c(C)o1 | active |
| Cc1onc(-c2c(F)cccc2Cl)c1C(=O)Nc1nnc(C(F)(F)F)s1 | active |
| COc1ccc2[nH]cc(C(=O)CCl)c2c1 | active |
| COc1ccc(NC(=O)/C(Cl)=C(/Cl)S(=O)Cc2ccccc2)cn1 (stereo not drawn) | active |
| O=C(c1nnsc1S(=O)(=O)c1ccc(Cl)cc1)N1CCOCC1 | active |
| CCOc1ccc(Nc2ncnc3ccc([N+](=O)[O-])cc23)cc1 | active |
| COc1ccccc1-c1nnc(Nc2nc3c(OC)cccc3s2)o1 | active |
| Cc1cc(NC(=O)c2cccs2)n(-c2nc3ccccc3[nH]2)n1 | active |
| C/C(=N\Nc1nc2ccccc2[nH]1)c1ccccn1 | active |
| O=C(Nc1ccc(Cl)c(Cl)c1)Nc1ccccc1NS(=O)(=O)c1cccs1 | active |
| O=c1[nH]c(=O)n(Cc2ccco2)c2c1C(C(F)(F)F)(C(F)(F)F)N=C(c1ccc(F)cc1)N2 | active |
| O=C(NC1CCCCC1)c1sc(=S)n2c1[nH]c(=O)c1ccccc12 | active |
| O=C(Nc1ccc([N+](=O)[O-])cc1)Nc1nc(-c2ccc(Cl)s2)cs1 | active |
